Sourced from patent US20050107289A1

# System: murine red blood cells
# Assay info: Red blood cell hemolysis
# Assay type: cell-based, mouse
Non-standard residues stand in square brackets, D forms with d. Residues, ends and D or L forms follow the SMILES beside them.
Reported RBC Hemolysis (HD50) values for the following compounds.

Compound	Operator	RBC Hemolysis (HD50)
CC(C)C[C@H]1NC(=O)[C@H](Cc2c[nH]c3ccccc23)NC(=O)[C@@H](CCCNC(=N)N)NC(=O)[C@H](CCCCN)NC(=O)[C@@H](Cc2c[nH]cn2)NC(=O)[C@H](CCCCN)NC(=O)[C@@H](CC(C)C)NC(=O)[C@H](Cc2c[nH]c3ccccc23)NC1=O [SEQ ID NO:74, [KRWLWLKH]] (cyclo(K[dR]W[dL]W[dL]K[dH]))	>	130
C[C@H]1NC(=O)[C@H](CCCCN)NC(=O)[C@@H](CC(N)=O)NC(=O)[C@H](CCC(N)=O)NC(=O)[C@@H](C)NC(=O)[C@H](CCCCN)NC(=O)[C@@H](CC(N)=O)NC(=O)[C@H](Cc2c[nH]c3ccccc23)NC1=O [SEQ ID NO:96, [KAQNKAWN]] (cyclo(K[dA]Q[dN]K[dA]W[dN]))	>	200
CC(C)C[C@H]1NC(=O)[C@H](Cc2c[nH]c3ccccc23)NC(=O)[C@@H](Cc2c[nH]cn2)NC(=O)[C@H](CCCCN)NC(=O)[C@@H](Cc2c[nH]cn2)NC(=O)[C@H](Cc2c[nH]c3ccccc23)NC(=O)[C@@H](CC(C)C)NC(=O)[C@H](Cc2c[nH]c3ccccc23)NC1=O [SEQ ID NO:21] (cyclo(K[dH]W[dL]W[dL]W[dH]))	=	25
CC(C)C[C@H]1NC(=O)[C@H](Cc2c[nH]c3ccccc23)NC(=O)[C@@H](CO)NC(=O)[C@H](Cc2c[nH]cn2)NC(=O)[C@@H]([C@H](C)O)NC(=O)[C@H](Cc2c[nH]c3ccccc23)NC(=O)[C@@H](CC(C)C)NC(=O)[C@H](Cc2c[nH]c3ccccc23)NC1=O [SEQ ID NO:6] (cyclo(H[dS]W[dL]W[dL]W[dT]))	=	100
CC(C)C[C@@H]1NC(=O)[C@@H](Cc2c[nH]c3ccccc23)NC(=O)[C@H](CCCCN)NC(=O)[C@@H](Cc2c[nH]cn2)NC(=O)[C@H](CCC(N)=O)NC(=O)[C@@H](Cc2c[nH]cn2)NC(=O)[C@H](CCCCN)NC(=O)[C@@H](Cc2c[nH]c3ccccc23)NC1=O [SEQ ID NO:87, [KHQHKWLW]] (cyclo(K[dH]Q[dH]K[dW]L[dW]))	=	200
CC(C)C[C@@H]1NC(=O)[C@@H](Cc2c[nH]c3ccccc23)NC(=O)[C@H](Cc2ccccc2)NC(=O)[C@@H](CCCNC(=N)N)NC(=O)[C@H](CCC(N)=O)NC(=O)[C@@H](CCCNC(=N)N)NC(=O)[C@H](Cc2c[nH]c3ccccc23)NC(=O)[C@@H](Cc2c[nH]c3ccccc23)NC1=O [SEQ ID NO:68, [QRFWLWWR]] (cyclo(Q[dR]F[dW]L[dW]W[dR]))	=	60
